# TEST: A549 lung cancer cell viability effects, profiling panel, resazurin fluorescence, 24 h, PK04 Diversity Set (AID 1171); note: test concentration not given here
# EXPERIMENTAL SETUP: higher = more signal, called active from +8 up or from −8 down
Exercise: state measured z-score for each of the compounds provided.
Numbers only.

Guide cases for z-score, answers given:
CCOC(=O)[C@H](CC(C)C)NC(=O)CCC1CC(OC(=O)NCc2ccc3c(c2)OCO3)CC2(CCCC(COC(=O)NCCCN3CCCC3=O)O2)O1 (stereo partly specified): 0.142
CCOC(=O)[C@H](CC(C)C)NC(=O)CCC1CC(OC(=O)NCc2ccc3c(c2)OCO3)CC2(CCCC(COC(=O)NCC3CCCCC3)O2)O1 (stereo partly specified): 1.26
C[C@@H](c1ccccc1)N1C(=O)[C@H]2[C@H]3[C@H](O)[C@H](O)CC(=NO[C@@H]4O[C@H](CO)[C@@H](O)[C@H](O)[C@H]4O)[C@H]3CC[C@H]2C1=O: -0.154
CCOC(=O)CCN1C(=O)[C@H]2[C@H]3[C@H](O)[C@H](O)CC(=NNC(=O)OCc4ccccc4)[C@@H]3CC[C@H]2C1=O: -0.744
C[C@@H]1CC[C@H]2C(=O)O[C@@H](COc3ccc(C(C)(C)C)cc3)CN2[C@@H]1c1ccc(Br)cc1: 1.99

Okay, next one:
Asked: Which z-score value is on record for CCOC(=O)[C@H](CC(C)C)NC(=O)CCC1CC(OC(=O)NCc2ccc3c(c2)OCO3)CC2(CCCC(COC(=O)NCc3cccc(C(F)(F)F)c3)O2)O1 (stereo partly specified) ?
Given back: -0.175

---

# TEST: small-molecule binders of probe aInhba, primary screen, biochemical, small-molecule microarray, 635/667 nm fluorescence (AID 1148);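 note: score merges 667nm spot fluorescence with signal-to-noise for antibody binding to printed compounds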
# EXPERIMENTAL SETUP: higher = more signal
OBSERVED PROPERTY: composite z-score
One number for each entry.

Field: example entries. Status: answers known.
CCOC(=O)[C@H](Cc1ccccc1)NC(=O)CCC1CC(OC(=O)NCc2cccc3ccccc23)CC2(CCCC(COC(=O)NCC(c3ccccc3)c3ccccc3)O2)O1 (stereo partly drawn): -0.154
CC(C)=CCCC(C)=CCON=C1C[C@@H](O)[C@@H](O)[C@@H]2[C@@H]3C(=O)N(c4cccc(Oc5ccccc5)c4)C(=O)[C@@H]3CC[C@@H]12: -0.128
CCOC(=O)[C@H](CC(C)C)NC(=O)CCC1CC(OC(=O)NCc2cccc3ccccc23)CC2(CCCC(COC(=O)NCc3cccc(C(F)(F)F)c3)O2)O1 (stereo partly drawn): -0.0872
CCOC(=O)[C@H](Cc1ccccc1)NC(=O)CCC1CC(OC(=O)NCCc2ccc(F)cc2)CC2(CCCC(COC(=O)NCCOC)O2)O1 (stereo partly drawn): 0.122
O=C1C=C[C@@H](O)[C@@H]2[C@@H]3C(=O)N(C[C@@H]4CCCO4)C(=O)[C@@H]3CC[C@@H]12: -0.0424
CCOC(=O)[C@H](Cc1ccccc1)NC(=O)CCC1CC(OC(=O)NCc2cccc3ccccc23)CC2(CCCC(COC(=O)NCc3cccc(C(F)(F)F)c3)O2)O1 (stereo partly drawn): -0.0375
O=C1[C@H]2[C@H]3[C@H](O)[C@H](O)CC(=NOC[C@@H](O)COCc4ccco4)[C@H]3CC[C@H]2C(=O)N1c1ccc(F)cc1F: -0.103
CCCNC(=O)OC[C@H]1O[C@H](CCON=C(C)CCC(=O)OC[C@H]2O[C@H](c3ccccc3)C=C[C@@H]2Oc2ccc(OC)cc2)C=C[C@@H]1Oc1ccc(OC)cc1: -0.125
CCOC(=O)[C@H](Cc1ccccc1)NC(=O)CCC1CC(OC(=O)NCCc2ccc(F)cc2)CC2(CCCC(COC(=O)NCCCN3CCCC3=O)O2)O1 (stereo partly drawn): -0.206
CCOC(=O)[C@H](CC(C)C)NC(=O)CCC1CC(OC(=O)NCCc2ccc(F)cc2)CC2(CCCC(COC(=O)NCCc3ccc(Cl)cc3)O2)O1 (stereo partly drawn): -0.125

Please state composite z-score for every compound in the list that follows.
1. CCOC(=O)[C@H](CC(C)C)NC(=O)CCC1CC(OC(=O)NCc2cccc3ccccc23)CC2(CCCC(COC(=O)NCC3CCCCC3)O2)O1 (stereo partly drawn)
2. CCOC(=O)CCN1C(=O)[C@H]2[C@H]3[C@H](O)[C@H](O)CC(=NOCc4ccccc4)[C@H]3CC[C@H]2C1=O
3. COC(=O)[C@H](C)NC(=O)CCC1CC(OC(=O)NCc2cccc3ccccc23)CC2(CCCC(COC(=O)NCC(c3ccccc3)c3ccccc3)O2)O1 (stereo partly drawn)
4. Cc1cc2c(nc1C)CCCCN2CC(C)ON=C1[C@H]2CCn3c(=O)n(-c4ccccc4)c(=O)n3[C@H]2[C@H](O)[C@@H]2O[C@H]12 (stereo partly drawn)

Given back:
1: -0.0962; 2: 0.0805; 3: -0.11; 4: -0.125
